Can you tell me cell viability for the items I'm about to list?
# Tested on: Caco-2
# assay_explanation: cell viability relative to DMSO; higher = less toxic
# test_settings: 72 h; 100 nM
// return numeric value only (unit: %, not printed)

Give the measured cell viability of O=C(Nc1ccccc1-c1cn2c(CN3CCNCC3)csc2n1)c1cnc2ccccc2n1 . 99.7

Give the measured cell viability of Cc1cc(N2CCN([C@@H]3CN[C@H](C(=O)N4CCSC4)C3)CC2)n(-c2ccccc2)n1 . 94.3

Give the measured cell viability of NCCNc1ccc(NCCN)c2c1C(=O)c1ccncc1C2=O . 96.7

Give the measured cell viability of COC(=O)[C@]12CCC(C)(C)C[C@H]1[C@H]1C(=O)C=C3[C@@]4(C)C=C(C#N)C(=O)C(C)(C)[C@@H]4CC[C@@]3(C)[C@]1(C)CC2 . 85.9

Give the measured cell viability of O=C1C(=C(O)/C=C/c2ccc(O)cc2)C(=O)[C@@](O)([C@@H]2O[C@H](CO)[C@@H](O)[C@H](O)[C@H]2O)C(=O)[C@H]1[C@@H]1O[C@H](CO)[C@@H](O)[C@H](O)[C@H]1O . 93.1

Give the measured cell viability of O=C(/C=C/c1ccc(O)c(O)c1)c1ccc(O)cc1O . 101

Give the measured cell viability of Fc1ccccc1CNCc1ccc(-c2ccnc3[nH]ccc23)cc1 . 91.5

Give the measured cell viability of CCCN1CCCC(c2cccc(O)c2)C1 (stereo in doubt) . 106

Give the measured cell viability of CCCc1nc2c(C)cc(-c3nc4ccccc4n3C)cc2n1Cc1ccc(-c2ccccc2C(=O)O)cc1 . 90.7

Give the measured cell viability of COc1ncc2cc(C(=O)Nc3cc(C(=O)NCc4cccc(Cl)c4)ccc3Cl)c(=O)[nH]c2n1 . 99.6

Give the measured cell viability of NC(=O)NO [hydroxyurea] . 103

Give the measured cell viability of CN(C)C(=N)NC(=N)N . 90.2

Give the measured cell viability of N=C(N)NCCC[C@H](NC(=O)[C@@H]1CCCN1C(=O)[C@@H]1CSSC[C@H](N)C(=O)N[C@@H](Cc2ccc(O)cc2)C(=O)N[C@@H](Cc2ccccc2)C(=O)N[C@@H](CCC(N)=O)C(=O)N[C@@H](CC(N)=O)C(=O)N1)C(=O)NCC(N)=O . 88

Give the measured cell viability of NCC(=O)CCC(=O)O . 98.9

Give the measured cell viability of C[C@H](Nc1cc2c(-c3ccc4c(c3)OCO4)noc2cn1)c1ccccc1 . 107

Give the measured cell viability of O=C(/C=C/c1cccnc1)c1ccncc1 . 99.7
